subject of test: T1, human ROR1 (full-length, on the cell surface) (human, UniProt Q01973 30-937)
T1 construct: whole, on cells; the tumour cell lines carry their own ROR1; also called Ba/F3-ROR1 cells; Jeko-1
procedure summary: flow cytometry, Jeko-1 cells
pEC50: −log10 of the molar value.
Reported pEC50 values are given for each entry in this list.

binder: 38F8-Hu27 (antibody, human IgG1, kappa, V domains shown, humanized, human IgG1 / kappa) VH: EVQLVESGGGLVQPGGSLRLSCAASGFTFSNYAMSWVRQAPGKGLEWVASISSGGPTYYPDSVKGRFTVSRDNSKNTLYLQMNSLRAEDTAVYYCARGYRYDVNWYFDVWGAGTMVTVSS VL: DIQMTQSPSSLSASVGDRVTITCQASQDISNYLTWFQQKPGKSPKTLIHRANRLVTGVPSRFSGSGSGTDYTFTISSLQPEDIAIYYCLQYDEFPYTFGGGTKVEIKR
pEC50: 10.15
--
binder: 3D8-Hu57 (antibody, human IgG1, kappa, V domains shown, humanized, human IgG1 / kappa) VH: EVQLVESGGGLVQPGGSLRLSCAASGFTFSSYAMSWVRQAPGKGLEWVSSINSGGSTYYPDSVKGRFTISRENAKNSLYLQMNSLRAGDTAVYYCARVNYYGYGDYAMDYWGQGTLVTVSS VL: DIQMTQSPSSLSASVGDRVTITCQASQDISNYLSWFQQKPGKSPKTLIYRANRLVTGVPSRFSGSGSGTDYTFTISSLQPEDIATYYCLQYDEFPYTFGGGTKLEIKR
pEC50: 9.89
--
binder: 38F8-Hu57 (antibody, human IgG1, kappa, V domains shown, humanized, human IgG1 / kappa) VH: EVQLVESGGGLVQPGGSLRLSCAASGFTFSNYAMSWVRQAPEKRLEWVASISSGGPTYYPDSVKGRFTVSRDNSKNTLYLQMNSLRAEDTAVYYCARGYRYDVNWYFDVWGAGTMVTVSS VL: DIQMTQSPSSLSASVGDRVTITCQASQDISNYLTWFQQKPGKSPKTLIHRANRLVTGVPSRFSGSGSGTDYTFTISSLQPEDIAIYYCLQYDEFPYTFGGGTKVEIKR
pEC50: 10.15
--
binder: 19F6-Hu35V1 (antibody, human IgG1, kappa, V domains shown, humanized, human IgG1 / kappa) VH: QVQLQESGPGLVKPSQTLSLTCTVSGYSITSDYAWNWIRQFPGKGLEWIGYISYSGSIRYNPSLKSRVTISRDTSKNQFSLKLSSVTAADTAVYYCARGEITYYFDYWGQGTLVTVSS VL: ETTLTQSPAFMSATPGDKVTISCKASTSIDDDMNWYQQKPGEPPKLIISEGNTLRPGIPPRFSSSGYGTDFTFTINKIKSEDAATYYCLQSNDLPLTFGQGTKLEIKR
pEC50: 9.92
--
binder: 3D8-Hu26 (antibody, human IgG1, kappa, V domains shown, humanized, human IgG1 / kappa) VH: EVQLVESGGGLVQPGGSLRLSCAASGFTFSSYAMSWVRQAPGKGLEWVASINSGGSTYYPDSVKGRFTISRDNAKNSLYLQMNSLRAEDTAVYYCARVNYYGYGDYAMDYWGQGTLVTVSS VL: DIQMTQSPSSLSASVGDRVTITCQASQDINSYLSWFQQKPGKSPKTLIYRANRLVTGVPSRFSGSGSGTDYTFTISSLQPEDIATYYCLQYDEFPYTFGGGTKLEIKR
pEC50: 10.10
--
binder: 38F8-Hu24 (antibody, human IgG1, kappa, V domains shown, humanized, human IgG1 / kappa) VH: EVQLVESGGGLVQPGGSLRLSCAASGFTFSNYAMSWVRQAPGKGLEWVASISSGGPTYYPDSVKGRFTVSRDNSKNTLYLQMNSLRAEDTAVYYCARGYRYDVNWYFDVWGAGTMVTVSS VL: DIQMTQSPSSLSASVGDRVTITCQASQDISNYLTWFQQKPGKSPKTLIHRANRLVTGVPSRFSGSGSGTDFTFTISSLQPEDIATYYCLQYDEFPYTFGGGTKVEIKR
pEC50: 10.30
--
binder: 38F8-Hu54 (antibody, human IgG1, kappa, V domains shown, humanized, human IgG1 / kappa) VH: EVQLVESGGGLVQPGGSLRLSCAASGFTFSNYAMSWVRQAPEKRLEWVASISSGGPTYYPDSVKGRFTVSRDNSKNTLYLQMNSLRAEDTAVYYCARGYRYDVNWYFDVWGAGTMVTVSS VL: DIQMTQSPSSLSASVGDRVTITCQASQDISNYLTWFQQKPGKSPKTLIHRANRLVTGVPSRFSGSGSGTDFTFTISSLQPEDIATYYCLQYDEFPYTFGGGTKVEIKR
pEC50: 10.05
--
binder: 3D8-HuC54 (antibody, human IgG1, kappa, V domains shown, humanized, human IgG1 / kappa) VH: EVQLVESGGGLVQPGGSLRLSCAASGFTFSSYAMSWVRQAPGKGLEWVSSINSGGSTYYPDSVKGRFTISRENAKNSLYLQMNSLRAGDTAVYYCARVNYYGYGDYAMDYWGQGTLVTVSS VL: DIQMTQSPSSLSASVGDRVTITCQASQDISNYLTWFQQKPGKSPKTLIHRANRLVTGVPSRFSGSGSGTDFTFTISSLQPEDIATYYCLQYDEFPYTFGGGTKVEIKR
pEC50: 10.52
--
binder: 38F8-Hu66 (antibody, human IgG1, kappa, V domains shown, humanized, human IgG1 / kappa) VH: QVQLVESGGGLVKPGGSLRLSCAASGFTFSNYAMSWVRQAPEKRLEWVASISSGGPTYYPDSVKGRFTISRDNAKNSLYLQMNSLRAEDTAVYYCARGYRYDVNWYFDVWGAGTMVTVSS VL: DIQMTQSPSSLSASVGDRVTITCQASQDINSYLTWFQQKPGKSPKTLIHRANRLVTGVPSRFSGSGSGTDFTFTISSLQPEDIATYYCLQYDEFPYTFGGGTKVEIKR
pEC50: 9.96
--
binder: 38F8-Hu14 (antibody, human IgG1, kappa, V domains shown, humanized, human IgG1 / kappa) VH: EVQLVESGGGLVQPGGSLRLSCTASGFTFSNYAMSWVRQAPGKGLEWVASISSGGPTYYADSVKGRFTVSRDNSRNTLYLQMNSLRAEDTAVYYCARGYRYDVNWYFDVWGRGTLVTVSS VL: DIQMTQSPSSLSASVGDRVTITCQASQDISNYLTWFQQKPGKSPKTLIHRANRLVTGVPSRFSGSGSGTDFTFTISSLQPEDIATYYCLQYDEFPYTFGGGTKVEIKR
pEC50: 10.10
